- test.system: WNK3 (human)
- measurement.notes: Caliper, Mobility shift assay off-chip
- protocol.conditions: compound 0.2 µM
Provide the recorded inhibition for the entries that follow.
Provide the reading as a plain figure in %.

inhibition reported for this compound Cc1ccc(Nc2nccc(N(C)c3ccc4c(C)n(C)nc4c3)n2)cc1S(N)(=O)=O : 3.2

inhibition reported for this compound COc1cc2c(Oc3ccc4[nH]c(C)cc4c3F)ncnc2cc1OCCCN1CCCC1 : -1.1

inhibition reported for this compound CCN(CC)CCNC(=O)c1c(C)[nH]c(/C=C2\C(=O)Nc3ccc(F)cc32)c1C : 1.8
